Consider the following variants and their measured abundance fitness readings.
B1: MEF2-activating motif and SAP domain-containing transcriptional regulator, residues 170 to 204; numbered along this chain, Q6ZN01 (parent)
chain: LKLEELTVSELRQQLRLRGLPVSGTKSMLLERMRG

Variants of: B1
Assay: abundance fitness (aPCA) (normalised: wild type 0, dead -1); higher = more abundant; growth selection in yeast, the domain comes from the species named
Conditions: Homo sapiens

Please review the entries below; each comes with its answer.
sequence_entry=LKLEELTVSELRQQLRLRSLPVSGTKSMLLERMRG reading=-0.34
sequence_entry=LKLEELTVSELRQQLALRGLPVSGTKSMLLERMRG reading=0.04
sequence_entry=LKLEELTVSELRQQLRLRGSPVSGTKSMLLERMRG reading=-0.731
sequence_entry=LKLEELTVSELRQQLRLRGLPVSGTKSMLLERMRA reading=-0.117
sequence_entry=LKLEELTVSELRQQLRLRGLPWSGTKSMLLERMRG reading=-0.595

Exam item: Entry under review: `LKLEELTVSELRHQLRLRGLPVSGTKSMLLERMRG` . Reported abundance fitness?
Marked response: 0.054

Exam item: Moving on to `LKLEELTVSELNQQLRLRGLPVSGTKSMLLERMRG`
Marked response: -0.961

Exam item: Moving on to `LKLEELTVSELRQQLRLRFLPVSGTKSMLLERMRG`
Marked response: -0.639
